target: soluble mouse FcRn (smFcRn) (mouse); assay: SPR, FcRn immobilized, steady state (Req)
pKd: −log10 of the molar value.
Assay Metric: pKd

>>> readout_number("recombinant human serum albumin (RECOMBUMIN) (from UniProt P02768 25-609) (ligand; other documents disagree on this pair)")
4.06

The reported measurements were obtained from patent US20120220530A1.
